Target: T1, mouse big-ET-1 (SEQ ID NO:437) (Mus musculus, UniProt P22387)
T1 sequence (P22387 53-91 limits assumed): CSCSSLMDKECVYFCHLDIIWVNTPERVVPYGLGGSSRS
Assay: Surface plasmon resonance (Biacore) binding, mAb capture format, 37° C.

- molecule: "H1M6494N: anti-big-ET-1 hybridoma antibody, H1M Fc; HCVR/LCVR SEQ ID NO: 50/58 (antibody, V domains shown, mouse Fc) VH: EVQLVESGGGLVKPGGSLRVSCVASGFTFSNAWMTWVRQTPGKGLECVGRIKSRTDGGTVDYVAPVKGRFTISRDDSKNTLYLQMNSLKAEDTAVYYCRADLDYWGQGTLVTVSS VL: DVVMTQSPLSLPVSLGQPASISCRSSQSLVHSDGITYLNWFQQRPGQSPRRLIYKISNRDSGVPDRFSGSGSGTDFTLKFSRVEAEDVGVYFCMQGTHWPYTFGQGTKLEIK"
  binding to mouse big-ET-1 (in words): "did not show any binding"
- molecule: "H4H6317P: anti-big-ET-1 antibody, human IgG4 Fc; HCVR/LCVR SEQ ID NO: 130/138 (antibody, V domains shown, human IgG4 Fc) VH: QVQLVESGGGVVQPGRSLRLSCAASGFTFSSYGMHWVRQAPGKGLEWVAVLWYDGRNKYYADSVKGRFTISRDNSKNTLYLQMNSLRAEDTAVYYCARSYDAFDIWGQGTMVTVSS VL: DIQMTQSPSTLSASVGDRVTITCRASQSISSWLAWFQQGPGRAPKLLIYKASTLQSGVPSRFSGSGSGTEFTLTISSLQPDDFATYYCQQYRSYSPTFGQGTKVEIK"
  binding to mouse big-ET-1 (in words): "did not show any binding"
- molecule: "H1M6492N: anti-big-ET-1 hybridoma antibody, H1M Fc; HCVR/LCVR SEQ ID NO: 34/42 (antibody, V domains shown, mouse Fc) VH: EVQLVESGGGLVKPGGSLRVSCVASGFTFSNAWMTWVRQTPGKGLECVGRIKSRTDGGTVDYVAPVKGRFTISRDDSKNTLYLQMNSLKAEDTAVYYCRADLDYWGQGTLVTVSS VL: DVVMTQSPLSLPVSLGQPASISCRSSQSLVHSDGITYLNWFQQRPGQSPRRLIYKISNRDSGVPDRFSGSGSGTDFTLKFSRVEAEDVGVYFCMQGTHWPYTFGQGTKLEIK"
  binding to mouse big-ET-1 (in words): "did not show any binding"
